Target: PPAR delta (Homo sapiens)
Sequence (Q03181 211-439 limits assumed): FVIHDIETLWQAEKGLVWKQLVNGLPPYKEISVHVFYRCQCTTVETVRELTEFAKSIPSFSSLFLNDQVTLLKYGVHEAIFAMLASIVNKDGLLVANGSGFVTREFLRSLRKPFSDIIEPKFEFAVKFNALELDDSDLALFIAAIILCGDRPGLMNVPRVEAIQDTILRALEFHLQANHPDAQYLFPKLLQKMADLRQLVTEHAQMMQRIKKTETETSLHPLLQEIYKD
Assay: Transient transfection (transactivation) assay in CV-1 cells, GAL4-PPAR chimera, luciferase reporter
pEC50: −log10 of the molar value.
measured-metric: pEC50

Consider the following illustrative entries.
>  <compound>
Cc1ccc(S(=O)(=O)N2CCN(c3ccc(C(F)(F)F)cn3)[C@@H](C)[C@H]2C)cc1CC(=O)O (mixture of isomers)

>  <reading>
> 5.30

$$$$
>  <compound>
COC[C@@H]1CN(S(=O)(=O)c2ccc(C)c(CC(=O)O)c2)CCN1c1ccc(C(F)(F)F)cn1

>  <reading>
4.00 to 5.30

$$$$
>  <compound>
C[C@@H]1[C@H](C)N(c2ccc(C(F)(F)F)cn2)CCN1S(=O)(=O)c1cccc(CC(=O)O)c1 (racemic)

>  <reading>
> 5.30

$$$$
>  <compound>
Cc1cccc(N2CCN(S(=O)(=O)c3cccc(CC(=O)O)c3)CC2C)c1 (stereo not shown)

>  <reading>
4.00 to 5.30

$$$$
>  <compound>
Cc1ccc(S(=O)(=O)N2[C@H](C)CN(c3nc4ccccc4s3)C[C@@H]2C)cc1CC(=O)O

>  <reading>
4.00 to 5.30

$$$$

Exercise: Please tell me the measured pEC50 for Cc1cc(CC(=O)O)cc(S(=O)(=O)N2C[C@@H](C)N(c3ccc(C(F)(F)F)cn3)[C@@H](C)C2)c1 ; system: PPAR delta (Homo sapiens).
Solution: > 5.30

Exercise: Please tell me the measured pEC50 for Cc1cc(CC(=O)O)cc(S(=O)(=O)N2[C@@H](C)CN(c3ccc(C(F)(F)F)cn3)C[C@@H]2C)c1 ; system: PPAR delta (Homo sapiens).
Solution: > 5.30

Exercise: Please tell me the measured pEC50 for Cc1cc(CC(=O)O)cc(S(=O)(=O)N2CCN(c3ccc(OC(F)(F)F)cc3)[C@@H](C)C2)c1 ; system: PPAR delta (Homo sapiens).
Solution: > 5.30

Exercise: Please tell me the measured pEC50 for Cc1ccc(S(=O)(=O)N2C[C@@H](C)N(c3ccc(C(F)(F)F)cn3)[C@@H](C)C2)cc1CC(=O)O ; system: PPAR delta (Homo sapiens).
Solution: 4.00 to 5.30

Exercise: Please tell me the measured pEC50 for Cc1cc(CC(=O)O)cc(S(=O)(=O)N2CCN(c3cccc(Cl)c3)CC2)c1 ; system: PPAR delta (Homo sapiens).
Solution: 4.00 to 5.30

====

Molecular target: PPAR gamma (Homo sapiens, UniProt P37231)
Construct: expressed in transfected cells; host or cells: CV-1 cells
Sequence (P37231 238-503 limits assumed): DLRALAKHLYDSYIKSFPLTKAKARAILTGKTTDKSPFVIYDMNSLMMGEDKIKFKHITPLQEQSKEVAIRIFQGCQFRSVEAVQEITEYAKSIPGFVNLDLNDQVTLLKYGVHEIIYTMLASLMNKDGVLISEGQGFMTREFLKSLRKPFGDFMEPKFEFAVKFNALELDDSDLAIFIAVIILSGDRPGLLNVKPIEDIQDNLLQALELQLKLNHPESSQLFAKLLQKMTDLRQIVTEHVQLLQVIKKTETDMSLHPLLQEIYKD
Test: Transient transfection (transactivation) assay in CV-1 cells, GAL4-PPAR chimera, luciferase reporter
Format: cell-based
pEC50: −log10 of the molar value.
Below, each entry is listed alongside its reported pEC50.

>  <compound>
Cc1ccc(CC(=O)O)cc1S(=O)(=O)N1CCN(c2ccc(C#N)cc2)CC1 [Example 153]

>  <measurement-target>
PPAR gamma (Homo sapiens, UniProt P37231)

>  <reading>
< 4.00

$$$$
>  <compound>
Cc1cc(CC(=O)O)cc(S(=O)(=O)N2CCN(c3ccc(C)c(C)c3)CC2)c1 [Example 169]

>  <measurement-target>
PPAR gamma (Homo sapiens, UniProt P37231)

>  <reading>
4.00 to 5.30

$$$$
>  <compound>
Cc1ccc(S(=O)(=O)N2CCN(c3ccc4occc4c3)CC2C)cc1CC(=O)O (stereo not drawn) [Example 73]

>  <measurement-target>
PPAR gamma (Homo sapiens, UniProt P37231)

>  <reading>
< 4.00

$$$$
>  <compound>
N#Cc1ccccc1N1CCN(S(=O)(=O)c2cccc(CC(=O)O)c2)CC1 [Example 133]

>  <measurement-target>
PPAR gamma (Homo sapiens, UniProt P37231)

>  <reading>
< 4.00

$$$$
>  <compound>
Cc1cc(S(=O)(=O)N2[C@H](C)CN(c3ccc(OC(F)(F)F)cc3)C[C@@H]2C)cc(CC(=O)O)c1Br [Example 198]

>  <measurement-target>
PPAR gamma (Homo sapiens, UniProt P37231)

>  <reading>
4.00 to 5.30

$$$$
>  <compound>
COc1ccc(S(=O)(=O)N2CCN(c3ccc(C(F)(F)F)cn3)CC2)cc1CC(=O)O [Example 76]

>  <measurement-target>
PPAR gamma (Homo sapiens, UniProt P37231)

>  <reading>
4.00 to 5.30

$$$$
>  <compound>
Cc1ccc(S(=O)(=O)N2CCN(c3nc(Cl)cs3)CC2)cc1CC(=O)O [Example 50]

>  <measurement-target>
PPAR gamma (Homo sapiens, UniProt P37231)

>  <reading>
4.00 to 5.30

$$$$
>  <compound>
Cc1ccc(S(=O)(=O)N2CCCN(c3nc4ccccc4o3)CC2)cc1CC(=O)O [Example 26]

>  <measurement-target>
PPAR gamma (Homo sapiens, UniProt P37231)

>  <reading>
< 4.00

$$$$

Exercise: Give the reported pEC50 for this compound. CC(C)(Oc1cccc(S(=O)(=O)N2CCN(c3ccc(Cl)c(Cl)c3)CC2)c1)C(=O)O [Example 189]
Solution: 4.00 to 5.30

====

Molecular target: PPAR alpha (Homo sapiens, UniProt Q07869)
Construct: expressed in transfected cells; host or cells: CV-1 cells
Sequence (Q07869 239-466 limits assumed): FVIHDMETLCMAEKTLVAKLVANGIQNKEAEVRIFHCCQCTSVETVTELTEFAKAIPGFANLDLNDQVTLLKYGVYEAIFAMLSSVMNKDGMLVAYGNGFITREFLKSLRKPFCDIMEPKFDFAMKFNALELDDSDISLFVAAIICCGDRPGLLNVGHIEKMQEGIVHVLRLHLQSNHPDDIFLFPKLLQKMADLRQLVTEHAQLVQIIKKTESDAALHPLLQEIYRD
Test: Transient transfection (transactivation) assay in CV-1 cells, GAL4-PPAR chimera, luciferase reporter
Format: cell-based
Below, each entry is listed alongside its reported EC50.

Consider the following illustrative entries.
>  <compound>
Cc1ccc(S(=O)(=O)N2[C@H](C)CN(c3ccc(OC(F)(F)F)cc3)C[C@@H]2C)cc1CC(=O)O

>  <EC50>
5 to 100 µM

$$$$
>  <compound>
Cc1cc(CC(=O)O)cc(S(=O)(=O)N2CCN(c3cccc(Cl)c3)CC2)c1

>  <EC50>
> 100 µM

$$$$
>  <compound>
Cc1cc(CC(=O)O)cc(S(=O)(=O)N2CCN(c3ccc(Cl)cc3)CC2)c1

>  <EC50>
> 100 µM

$$$$
>  <compound>
C[C@@H]1CN(S(=O)(=O)c2cccc(CC(=O)O)c2)C[C@H](C)N1c1ccc(C(F)(F)F)cn1

>  <EC50>
5 to 100 µM

$$$$
>  <compound>
O=C(O)CCc1cccc(S(=O)(=O)N2CCN(c3ccc(Cl)cc3)CC2)c1

>  <EC50>
> 100 µM

$$$$
>  <compound>
Cc1cc(CC(=O)O)cc(S(=O)(=O)N2CCN(c3ccc(C(F)(F)F)c(F)c3)[C@@H](C)C2)c1

>  <EC50>
5 to 100 µM

$$$$
>  <compound>
Cc1ccc(S(=O)(=O)N2CCN(c3ccc(C(F)(F)F)c(F)c3)[C@@H](C)C2)cc1CC(=O)O

>  <EC50>
< 5 µM

$$$$
>  <compound>
Cc1cc(CC(=O)O)cc(S(=O)(=O)N2CCN(c3ccccc3F)CC2)c1

>  <EC50>
> 100 µM

$$$$
>  <compound>
O=C(O)Cc1cccc(S(=O)(=O)N2CCN(c3ccccc3F)CC2)c1

>  <EC50>
> 100 µM

$$$$
>  <compound>
Cc1ccc(CC(=O)O)cc1S(=O)(=O)N1CCN(c2ccc(C(F)(F)F)cc2[N+](=O)[O-])CC1

>  <EC50>
> 100 µM

$$$$

Exercise: Give the reported EC50 for this compound. CCC1CN(c2ccc(C(F)(F)F)cn2)CCN1S(=O)(=O)c1ccc(C)c(CC(=O)O)c1 (stereo not shown)
Solution: 5 to 100 µM

Exercise: Give the reported EC50 for this compound. Cc1ccc(S(=O)(=O)N2CCN(c3ccccc3)CC2)cc1CC(=O)O
Solution: > 100 µM

Exercise: Give the reported EC50 for this compound. O=C(O)Cc1c(F)ccc(S(=O)(=O)N2CCN(c3ccc(C(F)(F)F)cn3)CC2)c1F
Solution: 5 to 100 µM

====

Target: PPAR delta (Homo sapiens, UniProt Q03181)
Construct: expressed in transfected cells; host or cells: CV-1 cells
Assay: Transient transfection (transactivation) assay in CV-1 cells, GAL4-PPAR chimera, luciferase reporter
Type: cell-based
measured-metric: EC50

>  <molecule>
Cc1ccc(S(=O)(=O)N2C[C@H](C)N(c3ccc(C(F)(F)F)cn3)C[C@H]2C)cc1CC(=O)O (mixture of isomers)

>  <EC50>
< 5 µM

$$$$
>  <molecule>
C[C@@H]1CN(c2ccc(C(F)(F)F)cn2)C[C@H](C)N1S(=O)(=O)c1ccc(F)c(CC(=O)O)c1F

>  <EC50>
5 to 100 µM

$$$$

Exercise: Please tell me the measured EC50 for COc1ccc(N2CCN(S(=O)(=O)c3ccc(C)c(CC(=O)O)c3)CC2)cc1OC ; system: PPAR delta (Homo sapiens, UniProt Q03181).
Solution: > 100 µM

Exercise: Please tell me the measured EC50 for Cc1ccc(S(=O)(=O)N2C[C@H](C)N(c3ccc(C(F)(F)F)cn3)[C@@H](C)C2)cc1CC(=O)O ; system: PPAR delta (Homo sapiens, UniProt Q03181).
Solution: < 5 µM

Exercise: Please tell me the measured EC50 for Cc1ccc(S(=O)(=O)N2CCN(c3ccc(C(F)(F)F)cn3)C(C)(C)C2)cc1CC(=O)O ; system: PPAR delta (Homo sapiens, UniProt Q03181).
Solution: < 5 µM

Exercise: Please tell me the measured EC50 for Cc1ccc(S(=O)(=O)N2CCCN(c3ccncc3)CC2)cc1CC(=O)O ; system: PPAR delta (Homo sapiens, UniProt Q03181).
Solution: 5 to 100 µM

Exercise: Please tell me the measured EC50 for COc1ccccc1N1CCN(S(=O)(=O)c2cc(CC(=O)O)ccc2C)CC1 ; system: PPAR delta (Homo sapiens, UniProt Q03181).
Solution: > 100 µM

Exercise: Please tell me the measured EC50 for Cc1cc(CC(=O)O)cc(S(=O)(=O)N2C3CCC2CN(c2ccc(OC(F)(F)F)cc2)C3)c1 ; system: PPAR delta (Homo sapiens, UniProt Q03181).
Solution: < 5 µM

Exercise: Please tell me the measured EC50 for Cc1ccc(S(=O)(=O)N2CCN(c3ccc([N+](=O)[O-])cn3)CC2)cc1CC(=O)O ; system: PPAR delta (Homo sapiens, UniProt Q03181).
Solution: < 5 µM
